Test system Serine/threonine-protein kinase 4 (Homo sapiens) (UniProt Q13043), ΔTm listed for each of the molecules.
Report the figure in °C without appending any unit label.

Please state recorded ΔTm (tested on Serine/threonine-protein kinase 4 (Homo sapiens) (UniProt Q13043)) of N#C/C(=C(/N)Sc1ccc(N)cc1)c1ccccc1C(F)(F)F
Sequence (Q13043 whole entry): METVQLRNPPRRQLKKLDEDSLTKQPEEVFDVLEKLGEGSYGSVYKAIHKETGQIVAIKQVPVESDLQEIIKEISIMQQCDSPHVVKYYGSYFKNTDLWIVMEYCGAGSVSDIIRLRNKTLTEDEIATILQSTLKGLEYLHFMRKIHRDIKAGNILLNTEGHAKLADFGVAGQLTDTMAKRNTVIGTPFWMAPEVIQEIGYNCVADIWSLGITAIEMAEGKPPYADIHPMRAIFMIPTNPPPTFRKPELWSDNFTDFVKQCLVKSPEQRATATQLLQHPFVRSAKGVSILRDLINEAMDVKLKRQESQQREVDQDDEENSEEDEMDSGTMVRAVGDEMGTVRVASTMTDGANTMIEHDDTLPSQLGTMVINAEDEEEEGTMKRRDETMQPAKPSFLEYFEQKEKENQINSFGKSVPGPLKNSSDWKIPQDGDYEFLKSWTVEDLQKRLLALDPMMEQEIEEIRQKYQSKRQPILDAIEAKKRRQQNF
0.8

Please state recorded ΔTm (tested on Serine/threonine-protein kinase 4 (Homo sapiens) (UniProt Q13043)) of CCCCc1c(-c2ccc(O)cc2)[nH]c2nccnc12
-0.2

Please state recorded ΔTm (tested on Serine/threonine-protein kinase 4 (Homo sapiens) (UniProt Q13043)) of O=C(O)c1cc(NCc2cc(O)ccc2O)ccc1O
-0.6

Please state recorded ΔTm (tested on Serine/threonine-protein kinase 4 (Homo sapiens) (UniProt Q13043)) of O=C1C(Cl)=C(N2C(=O)CCC2=O)C(=O)c2ccccc21
-0.8

Please state recorded ΔTm (tested on Serine/threonine-protein kinase 4 (Homo sapiens) (UniProt Q13043)) of O=C(Nc1cccc(Nc2nccc(Nc3cccc(C(F)(F)F)c3)n2)c1)C1CC1
0.9

Please state recorded ΔTm (tested on Serine/threonine-protein kinase 4 (Homo sapiens) (UniProt Q13043)) of N#CCCc1ccc2c(c1)-c1[nH]c3ccc([N+](=O)[O-])cc3c1CC(=O)N2
5.9

Please state recorded ΔTm (tested on Serine/threonine-protein kinase 4 (Homo sapiens) (UniProt Q13043)) of CN(C)CCCn1cc(C2=C(c3c[nH]c4ccccc34)C(=O)NC2=O)c2ccccc21
5.7

Please state recorded ΔTm (tested on Serine/threonine-protein kinase 4 (Homo sapiens) (UniProt Q13043)) of NS(=O)(=O)c1ccc(Nc2nc(OCC3CCCCC3)c3nc[nH]c3n2)cc1
1.4

Please state recorded ΔTm (tested on Serine/threonine-protein kinase 4 (Homo sapiens) (UniProt Q13043)) of COc1ccc2c(c1)/C(=C/c1cnc[nH]1)C(=O)N2
8.1

Please state recorded ΔTm (tested on Serine/threonine-protein kinase 4 (Homo sapiens) (UniProt Q13043)) of Nc1cccc(-c2cc3c(Oc4cccc(O)c4)ncnc3[nH]2)c1
5.1

Please state recorded ΔTm (tested on Serine/threonine-protein kinase 4 (Homo sapiens) (UniProt Q13043)) of O=c1sn(Cc2ccccc2)c(=S)n1Cc1ccccc1
0.9

Please state recorded ΔTm (tested on Serine/threonine-protein kinase 4 (Homo sapiens) (UniProt Q13043)) of Nc1cc2ncnc(Nc3cccc(Br)c3)c2cc1N
2.7

Please state recorded ΔTm (tested on Serine/threonine-protein kinase 4 (Homo sapiens) (UniProt Q13043)) of Cc1[nH]c(/C=C2\C(=O)Nc3ccc(S(=O)(=O)N(C)c4cccc(Cl)c4)cc32)c(C)c1C(=O)N1CCN(C)CC1
0.1

Please state recorded ΔTm (tested on Serine/threonine-protein kinase 4 (Homo sapiens) (UniProt Q13043)) of O=C(O)Cc1ccc(O)c([N+](=O)[O-])c1
0.4

Please state recorded ΔTm (tested on Serine/threonine-protein kinase 4 (Homo sapiens) (UniProt Q13043)) of Cl.Cn1cc(C2=C(c3ccc4cc5n(c4c3)CCC(CN)C5)C(=O)NC2=O)c2ccccc21 (configuration not stated)
7.1

Please state recorded ΔTm (tested on Serine/threonine-protein kinase 4 (Homo sapiens) (UniProt Q13043)) of COc1nccc(-c2c(-c3ccc(F)cc3)ncn2[C@H]2CC[C@H](O)CC2)n1
6.1

Please state recorded ΔTm (tested on Serine/threonine-protein kinase 4 (Homo sapiens) (UniProt Q13043)) of O=C(O)/C=C/c1cc(CO)ccc1CO
0

Please state recorded ΔTm (tested on Serine/threonine-protein kinase 4 (Homo sapiens) (UniProt Q13043)) of COc1cc2ncnc(Nc3cccc(O)c3)c2cc1OC
1.6

Please state recorded ΔTm (tested on Serine/threonine-protein kinase 4 (Homo sapiens) (UniProt Q13043)) of Cc1c2ccncc2c(C)c2c1[nH]c1ccccc12
4

Please state recorded ΔTm (tested on Serine/threonine-protein kinase 4 (Homo sapiens) (UniProt Q13043)) of O=C1c2ccccc2-c2n[nH]c3cccc1c23
4.3

Please state recorded ΔTm (tested on Serine/threonine-protein kinase 4 (Homo sapiens) (UniProt Q13043)) of Oc1ccc(-c2nc(-c3ccc(F)cc3)c(-c3ccncc3)[nH]2)cc1
0.9

Please state recorded ΔTm (tested on Serine/threonine-protein kinase 4 (Homo sapiens) (UniProt Q13043)) of N#C/C(=C1/Nc2ccccc2S1)c1ccnc(NCCc2cccnc2)n1
1.2

* * *

assayedSystem: Insulin-like growth factor 1 receptor (Homo sapiens)
Sequence (P08069 31-736 limits assumed): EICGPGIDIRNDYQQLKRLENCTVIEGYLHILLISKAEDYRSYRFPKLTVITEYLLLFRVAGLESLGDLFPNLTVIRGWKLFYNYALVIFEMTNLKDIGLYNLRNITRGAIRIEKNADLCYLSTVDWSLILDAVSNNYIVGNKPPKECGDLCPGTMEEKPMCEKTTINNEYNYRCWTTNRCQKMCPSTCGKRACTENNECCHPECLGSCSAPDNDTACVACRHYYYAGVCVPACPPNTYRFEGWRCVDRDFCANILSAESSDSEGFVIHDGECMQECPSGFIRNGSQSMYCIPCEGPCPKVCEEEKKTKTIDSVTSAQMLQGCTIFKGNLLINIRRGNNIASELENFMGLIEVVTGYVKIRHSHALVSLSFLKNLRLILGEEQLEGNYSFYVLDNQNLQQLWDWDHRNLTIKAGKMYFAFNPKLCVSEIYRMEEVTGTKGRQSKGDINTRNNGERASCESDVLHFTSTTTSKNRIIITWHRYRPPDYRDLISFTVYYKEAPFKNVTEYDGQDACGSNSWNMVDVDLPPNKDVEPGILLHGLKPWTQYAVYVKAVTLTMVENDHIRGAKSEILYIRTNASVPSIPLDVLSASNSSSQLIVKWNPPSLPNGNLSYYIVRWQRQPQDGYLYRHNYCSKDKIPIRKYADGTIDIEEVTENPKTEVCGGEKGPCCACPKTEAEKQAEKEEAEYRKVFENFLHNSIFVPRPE
Sequence (P08069 741-1367 limits assumed): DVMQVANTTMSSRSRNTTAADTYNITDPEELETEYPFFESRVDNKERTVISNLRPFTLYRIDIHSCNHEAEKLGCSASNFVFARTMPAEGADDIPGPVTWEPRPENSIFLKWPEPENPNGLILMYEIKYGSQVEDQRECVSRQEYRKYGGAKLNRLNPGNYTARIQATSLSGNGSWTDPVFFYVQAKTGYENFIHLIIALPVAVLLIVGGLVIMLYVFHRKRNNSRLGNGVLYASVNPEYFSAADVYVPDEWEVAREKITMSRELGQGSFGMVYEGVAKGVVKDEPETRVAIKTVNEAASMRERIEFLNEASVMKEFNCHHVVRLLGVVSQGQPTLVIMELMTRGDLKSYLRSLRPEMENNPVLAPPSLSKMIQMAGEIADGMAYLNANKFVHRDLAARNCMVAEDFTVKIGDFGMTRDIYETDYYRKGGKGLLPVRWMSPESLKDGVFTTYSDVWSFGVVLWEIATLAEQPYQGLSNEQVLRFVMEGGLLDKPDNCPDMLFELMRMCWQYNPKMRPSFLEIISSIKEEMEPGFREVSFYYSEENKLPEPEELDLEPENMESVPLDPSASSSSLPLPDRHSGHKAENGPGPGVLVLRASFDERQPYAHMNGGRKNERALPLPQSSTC
assayProcedure: Inhibition of IGF1R autophosphorylation in human MCF7 cells
Type: cell-based
measurementName: IC50 (µM)
Report the figure in µM without appending any unit label.

I would be grateful if you could share the reported IC50 for COc1ccc(Cl)cc1NC(=O)Nc1cc(C)nc2ccccc12 .
12

* * *

Test system Calcium/calmodulin-dependent protein kinase kinase 2 (Homo sapiens, UniProt Q96RR4), ΔTm listed for each of the compounds.

I would be grateful if you could share the reported ΔTm for NC(=O)c1ccc2[nH]c(-c3ccc(Oc4ccc(Cl)cc4)cc3)nc2c1 .
2.4 °C

I would be grateful if you could share the reported ΔTm for CCN(CC)CCNC(=O)c1c(C)[nH]c(/C=C2\C(=O)Nc3ccc(F)cc32)c1C .
6.8 °C

I would be grateful if you could share the reported ΔTm for Nc1cc2ncnc(Nc3cccc(Br)c3)c2cc1N .
-1 °C

I would be grateful if you could share the reported ΔTm for Cc1cc2ncc(-c3ccccc3)nc2cc1C .
-0.4 °C

I would be grateful if you could share the reported ΔTm for COc1cc2ncnc(Nc3cccc(O)c3)c2cc1OC .
1.1 °C

I would be grateful if you could share the reported ΔTm for COc1ccc(S(=O)(=O)N(CCO)c2ccccc2CN(C)C/C=C/c2ccc(Cl)cc2)cc1 .
0 °C

I would be grateful if you could share the reported ΔTm for COc1ccc2c(c1)/C(=C/c1cnc[nH]1)C(=O)N2 [SU-9516] .
2.8 °C

I would be grateful if you could share the reported ΔTm for Nc1n[nH]c2nc3ccccc3nc12 [QUINOXALINE1] .
0.2 °C

I would be grateful if you could share the reported ΔTm for O=C1C=C2C(=Nc3c2c2c(c4c3=NC3=C4CCC=C3)C=NC=2)CC1 .
6.3 °C

I would be grateful if you could share the reported ΔTm for Cc1nc(N)sc1-c1ccnc(Nc2cccc([N+](=O)[O-])c2)n1 .
3.6 °C

I would be grateful if you could share the reported ΔTm for CC(C)n1cnc2/c(=N/c3cccc(Cl)c3)nc(NCCO)[nH]c21 .
2.3 °C

I would be grateful if you could share the reported ΔTm for Cn1cc(/C=C2/C(=O)Nc3ccc(S(N)(=O)=O)cc32)c2ccccc21 .
3.5 °C

I would be grateful if you could share the reported ΔTm for O=C1Cc2c([nH]c3ccc([N+](=O)[O-])cc23)-c2ccccc2N1 .
2.5 °C

I would be grateful if you could share the reported ΔTm for O=S(=O)(NCCNC/C=C/c1ccc(Br)cc1)c1cccc2cnccc12 .
-0.1 °C

I would be grateful if you could share the reported ΔTm for CCCNC(=O)Nc1ccc(Oc2ncnc3cc(OC)c(OC)cc23)cc1Cl [KRN-633] .
0.7 °C

I would be grateful if you could share the reported ΔTm for COc1cc(/C=C/C(=O)CC(=O)/C=C/c2ccc(O)c(OC)c2)ccc1O [CURCUMIN] .
6.1 °C

I would be grateful if you could share the reported ΔTm for C/C(O)=C(\C#N)C(=O)Nc1cc(Br)ccc1Br .
-0.1 °C

I would be grateful if you could share the reported ΔTm for COc1cccc(-c2cc(=O)c3ccccc3o2)c1N .
-0.4 °C

I would be grateful if you could share the reported ΔTm for O=C1Nc2ccccc2/C1=C1/Nc2ccccc2/C1=N\O .
5.9 °C

I would be grateful if you could share the reported ΔTm for CCOC(=O)c1c(C)[nH]c(/C=C2\C(=O)Nc3ccccc32)c1C .
1.4 °C

I would be grateful if you could share the reported ΔTm for Cn1cc(C2=C(c3cn(CCCN)c4ccccc34)C(=O)NC2=O)c2ccccc21 .
-0.1 °C

I would be grateful if you could share the reported ΔTm for COc1cc2c(cc1OC)-c1n[nH]c(Nc3cccc(F)c3)c1C2 .
1.6 °C

* * *

Test system Calcium/calmodulin-dependent protein kinase type 1D (Homo sapiens) (UniProt Q8IU85), ΔTm listed for each of the compounds.
Report the figure in °C without appending any unit label.

I would be grateful if you could share the reported ΔTm for N#CC(C#N)=Cc1ccc(O)c(O)c1 [TYRPHOSTIN 23] .
0.2

I would be grateful if you could share the reported ΔTm for CCOc1cc(/C=C(\C#N)C(N)=O)cc(CSc2ccccc2)c1O .
-0.2

I would be grateful if you could share the reported ΔTm for CC(C)c1cc(/C=C(\C#N)C(=O)NCCCc2ccccc2)cc(C(C)C)c1O .
1.1

I would be grateful if you could share the reported ΔTm for CCCCc1c(-c2ccc(O)cc2)[nH]c2nccnc12 [ALOISINE A] .
1.2

I would be grateful if you could share the reported ΔTm for CN(C)c1ccc(CC2C(=O)Nc3ccccc32)cc1 (configuration not stated) .
0

I would be grateful if you could share the reported ΔTm for CN(C)CC1CCn2c(c(C3=C(c4c[nH]c5ccccc45)C(=O)NC3=O)c3ccccc32)C1 (configuration not stated) .
-0.1

I would be grateful if you could share the reported ΔTm for O=C1Cc2c([nH]c3ccc([N+](=O)[O-])cc23)-c2ccccc2N1 .
0.8

I would be grateful if you could share the reported ΔTm for O=C(Nc1cccc(Nc2nccc(Nc3cccc(C(F)(F)F)c3)n2)c1)C1CC1 [ANILINOPYRIMIDINE1] .
2.8

I would be grateful if you could share the reported ΔTm for O=Nc1c(-c2c(O)[nH]c3ccccc23)[nH]c2ccccc12 .
1.1

I would be grateful if you could share the reported ΔTm for O=C1Nc2ccccc2/C1=C\c1ccc[nH]1 .
1.3

I would be grateful if you could share the reported ΔTm for COc1cc2c(cc1OC)-c1n[nH]c(Nc3cccc(F)c3)c1C2 .
0.3

I would be grateful if you could share the reported ΔTm for C[S+]([O-])c1ccc(-c2nc(-c3ccc(F)cc3)c(-c3ccncc3)[nH]2)cc1 (configuration not stated) [SB-203580] .
-0.2

I would be grateful if you could share the reported ΔTm for CCOc1cc2ncnc(Nc3cccc(Br)c3)c2cc1OCC .
0.7

I would be grateful if you could share the reported ΔTm for O=C(O)c1cc(NCc2cc(O)ccc2O)ccc1O .
-0.1

I would be grateful if you could share the reported ΔTm for Brc1c(Br)c(Br)c2[nH]nnc2c1Br [TETRABROMOBENZOTRIAZOLE] .
-1.6

I would be grateful if you could share the reported ΔTm for NC1=NC(=O)/C(=C2\CCNC(=O)c3[nH]c(Br)cc32)N1 [HYMENIALDISINE] .
0

I would be grateful if you could share the reported ΔTm for C[C@@H](N)[C@H]1CC[C@H](C(=O)Nc2ccncc2)CC1 .
0.6

I would be grateful if you could share the reported ΔTm for O=C1C(Cl)=C(N2C(=O)CCC2=O)C(=O)c2ccccc21 .
-9.6

I would be grateful if you could share the reported ΔTm for Cc1[nH]c(/C=C2\C(=O)Nc3ccc(S(=O)(=O)N(C)c4cccc(Cl)c4)cc32)c(C)c1C(=O)N1CCN(C)CC1 .
0.4

I would be grateful if you could share the reported ΔTm for O=C1Nc2ccccc2/C1=C1/Nc2ccccc2/C1=N\O .
2.2

I would be grateful if you could share the reported ΔTm for CCN(CC)CCNC(=O)c1c(C)[nH]c(/C=C2\C(=O)Nc3ccc(Cl)cc32)c1C [SU-11652] .
2.6

I would be grateful if you could share the reported ΔTm for O=C1NC(=O)c2c1c1c3ccccc3n3c1c1c2c2ccccc2n1C1CCC3O1 .
1.6

I would be grateful if you could share the reported ΔTm for COc1cccc(-c2cc(=O)c3ccccc3o2)c1N .
-0.1

I would be grateful if you could share the reported ΔTm for COc1cc(OC)c(/C=C2\C(=O)Nc3ccccc32)c(OC)c1 .
-0.2

I would be grateful if you could share the reported ΔTm for Cc1cc(Nc2nc(-c3ccccc3)nc3ccccc23)n[nH]1 .
3.5

I would be grateful if you could share the reported ΔTm for c1ccc(-c2n[nH]c3c2oc2ccccc23)cc1 .
0.6

I would be grateful if you could share the reported ΔTm for N#C/C(=C(/N)Sc1ccc(N)cc1)c1ccccc1C(F)(F)F .
0.3

I would be grateful if you could share the reported ΔTm for Cl.Cn1cc(C2=C(c3ccc4cc5n(c4c3)CCC(CN)C5)C(=O)NC2=O)c2ccccc21 (configuration not stated) .
0.3

I would be grateful if you could share the reported ΔTm for O=c1cc(N2CCOCC2)oc2c(-c3ccccc3)cccc12 .
0.3

I would be grateful if you could share the reported ΔTm for CC(C)[C@H](CO)Nc1nc(Nc2cc(N)cc(Cl)c2)c2ncn(C(C)C)c2n1 [AMINOPURVALANOL] .
0.7

I would be grateful if you could share the reported ΔTm for Cc1nc2sccn2c(=O)c1CCN1CCC(=C(c2ccccc2)c2ccc(F)cc2)CC1 .
0.5

I would be grateful if you could share the reported ΔTm for O=C1Nc2ccc(S(=O)(=O)O)cc2/C1=C1/Nc2ccccc2/C1=N\O .
0.7

I would be grateful if you could share the reported ΔTm for CC(=O)O/N=C1/C(=C2/C(=O)Nc3cc(Br)ccc32)Nc2ccccc21 [6-BROMOINDIRUBIN-3'-ACETOXIME] .
-1.4

I would be grateful if you could share the reported ΔTm for COc1ccc(COc2ccc(Cc3cnc(N)nc3N)cc2OC)cc1 .
0.1

I would be grateful if you could share the reported ΔTm for N#C/C(=C\c1ccc(O)c(O)c1)C(=O)NCc1ccccc1 .
0.2

I would be grateful if you could share the reported ΔTm for Nc1n[nH]c2nc3ccccc3nc12 [QUINOXALINE1] .
0.2

I would be grateful if you could share the reported ΔTm for O=c1sn(Cc2ccccc2)c(=S)n1Cc1ccccc1 .
0.1

I would be grateful if you could share the reported ΔTm for COc1ccc(Cl)cc1NC(=O)Nc1cc(C)nc2ccccc12 .
2.2

I would be grateful if you could share the reported ΔTm for O=C1NC(=O)c2c1c1c3ccccc3[nH]c1n1cncc21 [ISOGRANULATIMIDE] .
1

I would be grateful if you could share the reported ΔTm for Oc1cccc(-c2nc(N3CCOCC3)c3oc4ncccc4c3n2)c1 .
0.4

I would be grateful if you could share the reported ΔTm for CC(C)n1cnc2/c(=N/c3cccc(Cl)c3)nc(NCCO)[nH]c21 .
0.7

I would be grateful if you could share the reported ΔTm for Cc1cncc2cccc(S(=O)(=O)N3CCCNC[C@@H]3C)c12 .
0.9
